Collected EC50 values appear next to each entry.
system_under_test: PACAP-R2 (Homo sapiens, UniProt P32241)
Construct: expressed in transfected cells; host or cells: CHO cells
Sequence (P32241 31-457): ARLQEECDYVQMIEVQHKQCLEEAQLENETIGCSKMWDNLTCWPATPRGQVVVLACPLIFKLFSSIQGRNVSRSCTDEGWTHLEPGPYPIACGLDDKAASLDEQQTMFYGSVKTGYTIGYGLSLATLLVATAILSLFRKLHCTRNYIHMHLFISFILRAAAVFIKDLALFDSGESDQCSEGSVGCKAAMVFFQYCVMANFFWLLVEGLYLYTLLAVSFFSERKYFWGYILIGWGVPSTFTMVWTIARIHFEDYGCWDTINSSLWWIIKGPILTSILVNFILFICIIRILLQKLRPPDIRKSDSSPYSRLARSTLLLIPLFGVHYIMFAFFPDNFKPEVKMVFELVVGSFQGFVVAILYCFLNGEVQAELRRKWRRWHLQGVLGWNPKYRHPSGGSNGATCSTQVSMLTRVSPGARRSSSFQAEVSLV
procedure_details: Cyclic AMP SPA on CHO cells transfected with PACAP-R2
Assay type: cell-based
study_conditions: cAMP SPA, concentration at which 50% of maximum PACAP27 activity is achieved, NA = no detectable activities, read-out: R2 EC50
No end group written: not given here.
// note: answer is a bare numeric in nM

# substance, observed
records = [
    ("HSDAVFTENYTKLRKQLAAKKYLNDLKK [Peptide R3P5]", 200),
    ("H-HSDGIFTDSYSRYRKQMAVKKYKAAVL-NH2 [PAC23]", 170),
    ("HSDAVFTDNYTRLRKQVAAKKYLNSIKK [Peptide R3P62]", 180),
    ("HSDGIFTDSYKRYRKQMAVKKYLAAVL-NH2 [PAC11]", 10),
    ("HSDAVFTDNYTRLRKQMAVKKYLNSIKK [Peptide R3P41]", 8),
]

Query string: For H-HSDAVFTDNYTRLRKQMAAKKYLNSIDNKR [Peptide R3P118] , write its EC50.
Result string: 15
